# System: CYP3A
# MEASUREMENT PARAMETERS: both, human, plasma, po, 2 mg, probe midazolam
ASSAY ENDPOINT: Cmax (ng/mL)
Please reply with the bare figure in ng/mL and do not write the unit itself.

Qu. Given the molecule `Cc1ncc2n1-c1ccc(Cl)cc1C(c1ccccc1F)=NC2` , what is its reported Cmax?
Ans. 7.65

----------
# METHOD NOTES: Clinical DDI study in healthy adults
# Type: in vivo, human
# MEASUREMENT PARAMETERS: both, human, plasma, oral, 8 mg
ASSAY ENDPOINT: AUC(0-t) (ng·h/mL)
Please reply with the bare figure in ng·h/mL and do not write the unit itself.

Qu. Given the compound `Cc1cn2nc(-c3cc(=O)n4cc(N5CCNC6(CC6)C5)ccc4n3)cc(C)c2n1` , what is its reported AUC(0-t)?
Ans. 1730
